Tested on: 633275-114-R-J1-PDC complex spheroids, viability
Assay: Anticancer human tumor 633275-114-R-J1-PDC patient-derived endometrial adenocarcinoma cell line growth inhibition [GQUAD]
Conditions: second compound 0.0316 µM; first compound 3.16 µM; stronger effect = lower value
Consider the cut-off 20%. If the recorded viability, T/C is strictly smaller, the label is Criterion met; if not, the label is Criterion not met.

IN: Please state whether viability, T/C is below 20% for CC1COCCN1c1cc(C2(S(C)(=N)=O)CC2)nc(-c2ccnc3[nH]ccc23)n1 (stereo not given) + Cc1cnc(CNC(=O)c2c(=O)c3ccc(N4CCCN(C)CC4)nc3n3c2sc2ccccc23)cn1
OUT: Criterion not met

IN: Next: CC1COCCN1c1cc(-c2ccnn2C)c2ccnc(-c3ccn[nH]3)c2n1 (stereo not given) + Cc1[nH]c2ccc(F)cc2c1-c1nc2c3cccnc3c3ncccc3c2[nH]1
OUT: Criterion not met

IN: Next: O=C(c1cc(Cc2n[nH]c(=O)c3ccccc23)ccc1F)N1CCN(C(=O)C2CC2)CC1 + Cc1cnc(CNC(=O)c2c(=O)c3ccc(N4CCCN(C)CC4)nc3n3c2sc2ccccc23)cn1
OUT: Criterion not met

IN: Next: Cc1cccc(N(C)C(=O)C2C(O)CCN2c2nc(C)cc(C(F)(F)F)c2C#N)c1 (stereo not given) + CN(C)c1ccc(Nc2c3ccc(NC(=O)CCN4CCCC4)cc3nc3cc(NC(=O)CCN4CCCC4)ccc23)cc1
OUT: Criterion not met

IN: Next: CC1COCCN1c1cc(C2(S(C)(=N)=O)CC2)nc(-c2ccnc3[nH]ccc23)n1 (stereo not given) + CN(C)c1ccc(Nc2c3ccc(NC(=O)CCN4CCCC4)cc3nc3cc(NC(=O)CCN4CCCC4)ccc23)cc1
OUT: Criterion not met

IN: Next: CC1COCCN1c1cc(C2(O)CC3CCC(C2)O3)c2cnn(-c3ccn[nH]3)c2n1 (stereo not given) + Cc1[nH]c2ccc(F)cc2c1-c1nc2c3cccnc3c3ncccc3c2[nH]1
OUT: Criterion met

IN: Next: CC(=O)O[C@H]1C(=O)[C@@]2(C)[C@H]([C@H](OC(=O)c3ccccc3)[C@]3(O)C[C@H](OC(=O)[C@H](O)[C@@H](NC(=O)c4ccccc4)c4ccccc4)C(C)=C1C3(C)C)[C@]1(OC(C)=O)CO[C@@H]1C[C@@H]2O + Cc1cnc(CNC(=O)c2c(=O)c3ccc(N4CCCN(C)CC4)nc3n3c2sc2ccccc23)cn1
OUT: Criterion not met

IN: Next: CC(C)(O)C1CCC(Nc2ccc3ncc(-c4cccc(C(F)(F)F)c4)n3n2)CC1 (stereo not given) + Cc1cnc(CNC(=O)c2c(=O)c3ccc(N4CCCN(C)CC4)nc3n3c2sc2ccccc23)cn1
OUT: Criterion not met

IN: Next: CC1COCCN1c1cc(C2(O)CC3CCC(C2)O3)c2cnn(-c3ccn[nH]3)c2n1 (stereo not given) + Cc1cnc(CNC(=O)c2c(=O)c3ccc(N4CCCN(C)CC4)nc3n3c2sc2ccccc23)cn1
OUT: Criterion met

IN: Next: O=C(NO)c1cnc(N2CCN(S(=O)(=O)c3ccc4ccccc4c3)CC2)nc1 + CN(C)c1ccc(Nc2c3ccc(NC(=O)CCN4CCCC4)cc3nc3cc(NC(=O)CCN4CCCC4)ccc23)cc1
OUT: Criterion met

----------
System: 633275-114-R-J1-PDC complex spheroids, viability
Assay: Anticancer human tumor 633275-114-R-J1-PDC cell line growth inhibition [GQUAD];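 further: spheroids exposed to the agents for seven days; percent of DMSO vehicle control viability which is 100%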
Details: second compound 0.1 µM; first compound 1 µM; stronger effect = lower value
MEASURED ENDPOINT: viability, T/C (%)
Please state the figure in %; there is no need to write the unit.

IN: Sample COc1ccc([C@@H](O)c2cc(-c3ncnc4cc(N5CCOCC5)ccc34)c(F)cc2Cl)nn1 + CN(C)c1ccc(Nc2c3ccc(NC(=O)CCN4CCCC4)cc3nc3cc(NC(=O)CCN4CCCC4)ccc23)cc1 — what was its viability, T/C?
OUT: 71.1

IN: Next: O=C(NO)c1cnc(N2CCN(S(=O)(=O)c3ccc4ccccc4c3)CC2)nc1 + Cc1[nH]c2ccc(F)cc2c1-c1nc2c3cccnc3c3ncccc3c2[nH]1
OUT: 32.1

IN: Next: COc1cc(C2c3cc4c(cc3C(OC3OC5COC(C)OC5C(O)C3O)C3COC(=O)C23)OCO4)cc(OC)c1O (stereo not given) + CN(C)c1ccc(Nc2c3ccc(NC(=O)CCN4CCCC4)cc3nc3cc(NC(=O)CCN4CCCC4)ccc23)cc1
OUT: 41.4

IN: Next: COc1ncnc(C2CC2)c1-c1ncc2cnn(Cc3ccc(-c4nc(C(F)(F)F)cn4C(C)C)cc3)c2n1 + CN(C)c1ccc(Nc2c3ccc(NC(=O)CCN4CCCC4)cc3nc3cc(NC(=O)CCN4CCCC4)ccc23)cc1
OUT: 99

IN: Next: O=C(c1cc(Cc2n[nH]c(=O)c3ccccc23)ccc1F)N1CCN(C(=O)C2CC2)CC1 + Cc1cnc(CNC(=O)c2c(=O)c3ccc(N4CCCN(C)CC4)nc3n3c2sc2ccccc23)cn1
OUT: 48.9

----------
System: 633275-114-R-J1-PDC complex spheroids, viability
Assay: Anticancer human tumor 633275-114-R-J1-PDC cell line growth inhibition [GQUAD];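 further: spheroids exposed to the agents for seven days; percent of DMSO vehicle control viability which is 100%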
Conditions: second compound 0.1 µM; first compound 0.0999 µM; stronger effect = lower value
Would you mind telling me the reported viability, T/C of each entry?
Please state the figure in %; there is no need to write the unit.

IN: Sample Cn1ncnc1[C@H]1c2n[nH]c(=O)c3cc(F)cc(c23)N[C@@H]1c1ccc(F)cc1 + Cc1cnc(CNC(=O)c2c(=O)c3ccc(N4CCCN(C)CC4)nc3n3c2sc2ccccc23)cn1 — what was its viability, T/C?
OUT: 39.3

IN: Next: Cn1ncnc1[C@H]1c2n[nH]c(=O)c3cc(F)cc(c23)N[C@@H]1c1ccc(F)cc1 + Cc1[nH]c2ccc(F)cc2c1-c1nc2c3cccnc3c3ncccc3c2[nH]1
OUT: 67.1

IN: Next: CC[C@@]1(O)C(=O)OCc2c1cc1n(c2=O)Cc2cc3c(CN(C)C)c(O)ccc3nc2-1 + Cc1cnc(CNC(=O)c2c(=O)c3ccc(N4CCCN(C)CC4)nc3n3c2sc2ccccc23)cn1
OUT: 41

IN: Next: CC[C@@]1(O)C(=O)OCc2c1cc1n(c2=O)Cc2cc3c(CN(C)C)c(O)ccc3nc2-1 + Cc1[nH]c2ccc(F)cc2c1-c1nc2c3cccnc3c3ncccc3c2[nH]1
OUT: 45.3

IN: Next: CCc1c2c(nc3ccc(O)cc13)-c1cc3c(c(=O)n1C2)COC(=O)[C@]3(O)CC + Cc1cnc(CNC(=O)c2c(=O)c3ccc(N4CCCN(C)CC4)nc3n3c2sc2ccccc23)cn1
OUT: 27.2

IN: Next: Cc1[nH]c2ccccc2c1CCNCc1ccc(/C=C/C(=O)NO)cc1 + Cc1[nH]c2ccc(F)cc2c1-c1nc2c3cccnc3c3ncccc3c2[nH]1
OUT: 46.1

----------
Tested on: 633275-114-R-J1-PDC complex spheroids, viability
Assay: Anticancer human tumor 633275-114-R-J1-PDC cell line growth inhibition [GQUAD];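 further: spheroids exposed to the agents for seven days; percent of DMSO vehicle control viability which is 100%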
Conditions: second compound 0.1 µM; first compound 1 µM; stronger effect = lower value
Consider the cut-off 80%. If the recorded viability, T/C is strictly smaller, the label is MET; if not, the label is NOT MET.

IN: Please state whether viability, T/C is below 80% for O=c1[nH]cc(F)c(=O)[nH]1 + Cc1[nH]c2ccc(F)cc2c1-c1nc2c3cccnc3c3ncccc3c2[nH]1
OUT: NOT MET

IN: Next: C#Cc1c(F)ccc2cc(O)cc(-c3ncc4c(N5CC6CCC(C5)N6)nc(OCC56CCCN5CC(F)C6)nc4c3F)c12 (stereo not given) + CN(C)c1ccc(Nc2c3ccc(NC(=O)CCN4CCCC4)cc3nc3cc(NC(=O)CCN4CCCC4)ccc23)cc1
OUT: NOT MET

IN: Next: CC1COCCN1c1cc(-c2ccnn2C)c2ccnc(-c3ccn[nH]3)c2n1 (stereo not given) + CN(C)c1ccc(Nc2c3ccc(NC(=O)CCN4CCCC4)cc3nc3cc(NC(=O)CCN4CCCC4)ccc23)cc1
OUT: MET

IN: Next: CC1COCCN1c1cc(C2(O)CC3CCC(C2)O3)c2cnn(-c3ccn[nH]3)c2n1 (stereo not given) + CN(C)c1ccc(Nc2c3ccc(NC(=O)CCN4CCCC4)cc3nc3cc(NC(=O)CCN4CCCC4)ccc23)cc1
OUT: MET

IN: Next: C=CCn1c(=O)c2cnc(Nc3ccc(N4CCN(C)CC4)cc3)nc2n1-c1cccc(C(C)(C)O)n1 + CN(C)c1ccc(Nc2c3ccc(NC(=O)CCN4CCCC4)cc3nc3cc(NC(=O)CCN4CCCC4)ccc23)cc1
OUT: MET

IN: Next: Cc1cccc(N(C)C(=O)C2C(O)CCN2c2nc(C)cc(C(F)(F)F)c2C#N)c1 (stereo not given) + CN(C)c1ccc(Nc2c3ccc(NC(=O)CCN4CCCC4)cc3nc3cc(NC(=O)CCN4CCCC4)ccc23)cc1
OUT: NOT MET

IN: Next: C=CCn1c(=O)c2cnc(Nc3ccc(N4CCN(C)CC4)cc3)nc2n1-c1cccc(C(C)(C)O)n1 + Cc1cnc(CNC(=O)c2c(=O)c3ccc(N4CCCN(C)CC4)nc3n3c2sc2ccccc23)cn1
OUT: MET

IN: Next: C#Cc1c(F)ccc2cc(O)cc(-c3ncc4c(N5CC6CCC(C5)N6)nc(OCC56CCCN5CC(F)C6)nc4c3F)c12 (stereo not given) + Cc1cnc(CNC(=O)c2c(=O)c3ccc(N4CCCN(C)CC4)nc3n3c2sc2ccccc23)cn1
OUT: MET

IN: Next: CCCS(=O)(=O)Nc1ccc(F)c(C(=O)c2c[nH]c3ncc(-c4ccc(Cl)cc4)cc23)c1F + Cc1cnc(CNC(=O)c2c(=O)c3ccc(N4CCCN(C)CC4)nc3n3c2sc2ccccc23)cn1
OUT: MET

IN: Next: C#Cc1c(F)ccc2cc(O)cc(-c3ncc4c(N5CC6CCC(C5)N6)nc(OCC56CCCN5CC(F)C6)nc4c3F)c12 (stereo not given) + Cc1[nH]c2ccc(F)cc2c1-c1nc2c3cccnc3c3ncccc3c2[nH]1
OUT: NOT MET

IN: Next: COc1ncnc(C2CC2)c1-c1ncc2cnn(Cc3ccc(-c4nc(C(F)(F)F)cn4C(C)C)cc3)c2n1 + Cc1[nH]c2ccc(F)cc2c1-c1nc2c3cccnc3c3ncccc3c2[nH]1
OUT: NOT MET

IN: Next: CC(C)n1c(=O)n(C)c2cnc3cc(F)c(-c4ccc(OCCCN5CCCCC5)nc4)cc3c21 + CN(C)c1ccc(Nc2c3ccc(NC(=O)CCN4CCCC4)cc3nc3cc(NC(=O)CCN4CCCC4)ccc23)cc1
OUT: NOT MET

IN: Next: COc1cccc2c1C(=O)c1c(O)c3c(c(O)c1C2=O)CC(O)(C(=O)CO)CC3OC1CC(N)C(O)C(C)O1 (stereo not given) + CN(C)c1ccc(Nc2c3ccc(NC(=O)CCN4CCCC4)cc3nc3cc(NC(=O)CCN4CCCC4)ccc23)cc1
OUT: MET

IN: Next: CC1COCCN1c1cc(C2(S(C)(=N)=O)CC2)nc(-c2ccnc3[nH]ccc23)n1 (stereo not given) + CN(C)c1ccc(Nc2c3ccc(NC(=O)CCN4CCCC4)cc3nc3cc(NC(=O)CCN4CCCC4)ccc23)cc1
OUT: NOT MET

IN: Next: CC(C)n1c(=O)n(C)c2cnc3cc(F)c(-c4ccc(OCCCN5CCCCC5)nc4)cc3c21 + Cc1cnc(CNC(=O)c2c(=O)c3ccc(N4CCCN(C)CC4)nc3n3c2sc2ccccc23)cn1
OUT: MET

IN: Next: Cc1cccc(N(C)C(=O)C2C(O)CCN2c2nc(C)cc(C(F)(F)F)c2C#N)c1 (stereo not given) + Cc1cnc(CNC(=O)c2c(=O)c3ccc(N4CCCN(C)CC4)nc3n3c2sc2ccccc23)cn1
OUT: MET

IN: Next: CC(C)(O)C1CCC(Nc2ccc3ncc(-c4cccc(C(F)(F)F)c4)n3n2)CC1 (stereo not given) + Cc1cnc(CNC(=O)c2c(=O)c3ccc(N4CCCN(C)CC4)nc3n3c2sc2ccccc23)cn1
OUT: MET

IN: Next: COc1cc(C2c3cc4c(cc3C(OC3OC5COC(C)OC5C(O)C3O)C3COC(=O)C23)OCO4)cc(OC)c1O (stereo not given) + Cc1[nH]c2ccc(F)cc2c1-c1nc2c3cccnc3c3ncccc3c2[nH]1
OUT: MET
